- Test system: SK-ES-1
- ASSAY EXPLANATION: relative viability vs DMSO control (72 h) (fraction); higher = more viable cells
- EXPERIMENTAL CONTEXT: 0.1235 µM
MEASURED QUANTITY: relative viability

MOLECULE	RESULT
Cc1cc(F)c(C(=O)Nc2cccc(-c3nncn3C(C)C)n2)cc1-n1cnc(C2CC2)c1	1.03
C[C@@H]1CN(C(=O)c2ccc(NC(=O)c3cc(O[C@H](C)c4c(Cl)ccc(F)c4Cl)c(N)nn3)cc2)C[C@H](C)N1	0.97
CNC(=O)c1c(C)oc2cc(Oc3ncnc4cc(OC)c(OC)cc34)ccc12	1.05
CN(C)CCCOc1ccc(-c2ccc3ncc4c(c3c2)n(C2CCOCC2)c(=O)n4C)cn1	0.734
CC(=O)c1c(C)c2cnc(Nc3ccc(N4CCNCC4)cn3)nc2n(C2CCCC2)c1=O	0.674
CNC(=O)c1cccc2cc(Oc3ccnc4cc(OCC5(N)CC5)c(OC)cc34)ccc12	1
O=C(/C=C\n1cnc(-c2cc(C(F)(F)F)cc(C(F)(F)F)c2)n1)NNc1cnccn1 [Selinexor]	0.0598
Cc1[nH]c(/C=C2\C(=O)Nc3ccccc32)c(C)c1CCC(=O)O [Orantinib]	1.02

====

As shown below, each of these compounds has a reported relative viability value.
- System: SK-ES-1
- ASSAY EXPLANATION: relative viability vs DMSO control (72 h) (fraction); higher = more viable cells
- EXPERIMENTAL CONTEXT: 10 µM

COMPOUND	TARGET UNDER TEST	relative viability
CN(C)C/C=C/C(=O)Nc1cc2c(Nc3ccc(F)c(Cl)c3)ncnc2cc1O[C@H]1CCOC1 [Afatinib]	SK-ES-1	0.113
O=C(/C=C\n1cnc(-c2cc(C(F)(F)F)cc(C(F)(F)F)c2)n1)NNc1cnccn1 [Selinexor]	SK-ES-1	0.013
CO[C@H]1C[C@@H]2CC[C@@H](C)[C@@](O)(O2)C(=O)C(=O)N2CCCC[C@H]2C(=O)O[C@H]([C@H](C)C[C@@H]2CC[C@@H](OC(=O)C(C)(CO)CO)[C@H](OC)C2)CC(=O)[C@H](C)/C=C(\C)[C@@H](O)[C@@H](OC)C(=O)[C@H](C)C[C@H](C)/C=C/C=C/C=C/1C [Temsirolimus]	SK-ES-1	0.126

====

- Test system: SK-LMS-1
- ASSAY EXPLANATION: relative viability vs DMSO control (72 h) (fraction); higher = more viable cells
- EXPERIMENTAL CONTEXT: 0.00457 µM
MEASURED QUANTITY: relative viability

ENTRY SMILES	MEASURED QUANTITY	QUANTITATIVE READOUT
CC(=O)c1c(C)c2cnc(Nc3ccc(N4CCNCC4)cn3)nc2n(C2CCCC2)c1=O	relative viability	1.05
C#Cc1cccc(Nc2ncnc3cc4c(cc23)OCCOCCOCCO4)c1	relative viability	1.07
CCS(=O)(=O)N1CC(CC#N)(n2cc(-c3ncnc4[nH]ccc34)cn2)C1	relative viability	1.03
O=C1CCc2c(Oc3ccc4c(c3)[C@@H]3[C@H](O4)[C@H]3c3nc4cc(C(F)(F)F)ccc4[nH]3)ccnc2N1	relative viability	1.08

====

As shown below, each of these molecules has a reported relative viability value.
- Test system: A204
- ASSAY EXPLANATION: relative viability vs DMSO control (72 h) (fraction); higher = more viable cells
- EXPERIMENTAL CONTEXT: 0.1235 µM

MOLECULE	relative viability
O=C(/C=C\n1cnc(-c2cc(C(F)(F)F)cc(C(F)(F)F)c2)n1)NNc1cnccn1 [Selinexor]	0.677
CS(=O)(=O)CCNCc1ccc(-c2ccc3ncnc(Nc4ccc(OCc5cccc(F)c5)c(Cl)c4)c3c2)o1	1.07
C#Cc1cccc(Nc2ncnc3cc4c(cc23)OCCOCCOCCO4)c1	1.09
COc1cc2ncnc(Nc3ccc(F)c(Cl)c3)c2cc1OCCCN1CCOCC1	1.1
CNC(=O)c1cccc2cc(Oc3ccnc4cc(OCC5(N)CC5)c(OC)cc34)ccc12	0.421
CN(C)C/C=C/C(=O)Nc1cc2c(Nc3ccc(F)c(Cl)c3)ncnc2cc1O[C@H]1CCOC1	0.859
COc1cc(Nc2ncc3c(n2)-c2ccc(Cl)cc2C(c2c(F)cccc2OC)=NC3)ccc1C(=O)O	0.882
C=CC(=O)N1CCC(CNc2ncnc(N)c2-c2ccc(Oc3ccccc3)cc2)CC1	1.07
CCOc1cc2ncc(C#N)c(Nc3ccc(OCc4ccccn4)c(Cl)c3)c2cc1NC(=O)/C=C/CN(C)C	1.01
CNC(=O)c1c(C)oc2cc(Oc3ncnc4cc(OC)c(OC)cc34)ccc12	0.967
